Origin of values: the supplement of paper PMC11316812

Kindly state percentage of EdU-negative for each of the entries shown.
- Tested on: MCF7;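 also: secreted proteins added to cultured cells, EdU pulse at the end, nuclei found by Hoechst imaging, EdU status from nuclear versus surrounding ring intensity ratio, PBS as neutral control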
- experiment_summary: percentage of EdU-negative (G0-arrested) nuclei per well, 72 h; higher = more G0 arrest
- condition_description: protein concentration 0.225 µM; reference: sequence is the full UniProt precursor, the tested protein was the secreted form or ectodomain
One number for each entry, in %.

Please review the following examples before continuing.
MSLMVVSMVCVGFFLLQGAWPHEGVHRKPSLLAHPGPLVKSEETVILQCWSDVRFQHFLLHREGKFKDTLHLIGEHHDGVSKANFSIGPMMQDLAGTYRCYGSVTHSPYQLSAPSDPLDIVITGLYEKPSLSAQPGPTVLAGESVTLSCSSRSSYDMYHLSREGEAHERRFSAGPKVNGTFQADFPLGPATHGGTYRCFGSFRDSPYEWSNSSDPLLVSVTGNPSNSWPSPTEPSSETGNPRHLHVLIGTSVVIILFILLLFFLLHRWCCNKKNAVVMDQEPAGNRTVNREDSDEQDPQEVTYAQLNHCVFTQRKITRPSQRPKTPPTDIIVYTELPNAEP
26.6
MAKMNLSSYILILTFSLFSQGILLSASKSIRNLDDDMVFNTFRLGKGFQKEDTAEKSVIAPSLEQYKNDESSFMNEEENKVSKNTGSKHNFLNHGLPLNLAIKPYLALKGSVAFPAENGVQNTESTQEKREIGDEENSAKFPIGRRDFDMLRCMLGRVYRPCWQV
26
MPMASPQTLVLYLLVLAVTEAWGQEAVIPGCHLHPFNVTVRSDRQGTCQGSHVAQACVGHCESSAFPSRYSVLVASGYRHNITSVSQCCTISGLKKVKVQLQCVGSRREELEIFTARACQCDMCRLSRY [Q96T91]
22

Now let's try a different one.
In: Which percentage of EdU-negative value is on record for MKLGLLCALLSLLAGHGWADTRAIGAEECRPNSQPWQAGLFHLTRLFCGATLISDRWLLTAAHCRKPYLWVRLGEHHLWKWEGPEQLFRVTDFFPHPGFNKDLSANDHNDDIMLIRLPRQARLSPAVQPLNLSQTCVSPGMQCLISGWGAVSSPKALFPVTLQCANISILENKLCHWAYPGHISDSMLCAGLWEGGRGSCQGDSGGPLVCNGTLAGVVSGGAEPCSRPRRPAVYTSVCHYLDWIQEIMEN [Q9UKQ9] ?
Out: 29.4
